I'd appreciate it if you could supply EC50 values for the items below.
molecular target: UniProtKB P29275; assay: Adenosine A2B receptor cyclic AMP GS assay (Example B); conditions: HEK-293 cells expressing human A2B, agonist NECA 12 nM, cAMP accumulation (FRET); read-out: A2B_cAMP_EC50

Cn1nc(-c2c(-c3cccc(C#N)c3)nc(N)n3nc(OCc4ncccc4F)nc23)ccc1=O
≤ 10 nM
Cn1cc(-c2c(-c3cccc(C#N)c3)nc(N)n3nc(Cn4nnnc4-c4cnccn4)nc23)ccc1=O
10 to 100 nM
Cc1cccnc1CNc1nc2c(-c3ccc(=O)n(C)n3)c(-c3cccc(C#N)c3)nc(N)n2n1
≤ 10 nM
N#Cc1cccc(-c2nc(N)n3nc(Cn4nnnc4-c4ccncc4)nc3c2-c2ccncn2)c1
≤ 10 nM
Cc1cccc(COc2nc3c(-c4ccncc4C)c(-c4cccc(C#N)c4)nc(N)n3n2)n1
10 to 100 nM

// input: 3 compounds below; output: EC50 for each
1. CCn1cc(-c2c(-c3cccc(C#N)c3)nc(N)n3nc(OCc4ncccc4C)nc23)ccc1=O
2. Cn1nc(-c2c(-c3cccc(C#N)c3)nc(N)n3nc(COc4ncccc4C#N)nc23)ccc1=O
3. N#Cc1cccc(-c2nc(N)n3nc(OCc4ncccc4F)nc3c2-c2ccncn2)c1

Result:
["10 to 100 nM", "10 to 100 nM", "≤ 10 nM"]

====

target: human adenosine A2B receptor (Homo sapiens (Human), UniProt P29275); test: Adenosine A2B receptor cyclic AMP GS assay (Example B); conditions: HEK-293 cells expressing human A2B, agonist NECA 12 nM, cAMP accumulation (FRET); read-out: A2B_cAMP_EC50
Sequence (P29275 whole entry): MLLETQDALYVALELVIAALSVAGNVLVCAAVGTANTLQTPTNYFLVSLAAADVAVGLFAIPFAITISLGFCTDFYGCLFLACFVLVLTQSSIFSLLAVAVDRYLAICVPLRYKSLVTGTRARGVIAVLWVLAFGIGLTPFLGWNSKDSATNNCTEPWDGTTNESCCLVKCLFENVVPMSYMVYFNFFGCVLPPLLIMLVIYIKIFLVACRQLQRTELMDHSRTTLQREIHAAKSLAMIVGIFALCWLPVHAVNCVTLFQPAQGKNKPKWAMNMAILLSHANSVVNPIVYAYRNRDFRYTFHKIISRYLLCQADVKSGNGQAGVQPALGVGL
Test readout: EC50

As a guide, the following entries are already answered.
N#Cc1cccc(-c2nc(N)n3nc(Cn4nnnc4-c4cccc(N)c4)nc3c2-c2ccncn2)c1 [Example 1]
≤ 10 nM
Cn1nc(-c2c(-c3cccc(C#N)c3)nc(N)n3nc(Cc4ccccn4)nc23)ccc1=O [Example 27]
≤ 10 nM
N#Cc1cccc(-c2nc(N)n3nc(Cc4c(F)cccc4-c4ccncc4)nc3c2-c2ccncc2)c1 [Example 13]
≤ 10 nM
Cn1cc(-c2c(-c3cccc(C#N)c3)nc(N)n3nc(COc4ncccc4C#N)nc23)ccc1=O [Example 43]
≤ 10 nM
COc1cc(-c2c(-c3cccc(C#N)c3F)nc(N)n3nc(NCc4ncccc4C)nc23)cc(C)n1 [Example 26]
10 to 100 nM
Cc1cc(-c2c(-c3cccc(C#N)c3)nc(N)n3nc(COc4ncccc4C#N)nc23)cc(C)n1 [Example 46]
100 to 1000 nM
Cc1cccnc1COc1nc2c(-c3ccc(=O)n(C)n3)c(-c3cccc(C#N)c3)nc(N)n2n1 [Example 19]
≤ 10 nM
Cc1cccc(Nc2nc3c(-c4ccncn4)c(-c4cccc(C#N)c4)nc(N)n3n2)n1 [Example 40]
≤ 10 nM
Cc1cccnc1COc1nc2c(-c3ccc(=O)n(C)c3)c(-c3cccc(C#N)c3)nc(N)n2n1 [Example 18]
≤ 10 nM
Cn1cc(-c2c(-c3cccc(C#N)c3)nc(N)n3nc(Cn4nnnc4-c4cscn4)nc23)ccc1=O [Example 6]
10 to 100 nM

Hey, quick one: what's EC50 for each of these?
1. COc1cc(-c2c(-c3cccc(C#N)c3)nc(N)n3nc(COc4ncccc4C#N)nc23)cc(C)n1 [Example 47]
2. Cn1cc(-c2c(-c3cccc(C#N)c3)nc(N)n3nc(Cn4nnnc4-n4cccn4)nc23)ccc1=O [Example 5]
3. CN(C)c1cc(-c2c(-c3cccc(C#N)c3)nc(N)n3nc(Cn4nnnc4-c4ccccn4)nc23)ccn1 [Example 11]

Result:
["10 to 100 nM", "10 to 100 nM", "≤ 10 nM"]

List reported EC50 for each of these compounds:
1. Cn1cc(-c2c(-c3cccc(C#N)c3)nc(N)n3nc(Cn4nnnc4-c4ncccn4)nc23)ccc1=O [Example 7]
2. Cc1cc(-c2c(-c3cccc(C#N)c3)nc(N)n3nc(OCc4cccc(C)n4)nc23)cc(C)n1 [Example 58]

Result:
10 to 100 nM
100 to 1000 nM

// batch mode: one EC50 value per listed entry
1. N#Cc1cccc(-c2nc(N)n3nc(Cn4nnnc4-c4cccnc4)nc3c2-c2ccncn2)c1 [Example 53]
2. N#Cc1cccc(-c2nc(N)n3nc(COc4ccccn4)nc3c2-c2ccncn2)c1 [Example 41]
3. COc1cc(-c2c(-c3cccc(C#N)c3)nc(N)n3nc(OCc4cccc(C)n4)nc23)cc(C)n1 [Example 59]

Result:
["≤ 10 nM", "≤ 10 nM", "10 to 100 nM"]

Please state, for each entry, its recorded EC50.
1. Cc1cccc(CNc2nc3c(-c4ccncn4)c(-c4cccc(C#N)c4)nc(N)n3n2)n1 [Example 65]
2. N#Cc1cccc(-c2nc(N)n3nc(Nc4ccccn4)nc3c2-c2ccncn2)c1 [Example 34]
3. N#Cc1cccc(-c2nc(N)n3nc(Cn4nnnc4-c4ccncn4)nc3c2-c2ccncn2)c1 [Example 52]
4. Cn1cc(-c2c(-c3cccc(C#N)c3)nc(N)n3nc(Cn4nnnc4-c4ccccn4)nc23)ccc1=O [Example 4]

Result:
1. 10 to 100 nM
2. ≤ 10 nM
3. ≤ 10 nM
4. 10 to 100 nM

Below is a list of compounds. For each, state its recorded EC50.
1. N#Cc1cccc(-c2nc(N)n3nc(Cn4nnc(-c5ccccn5)n4)nc3c2-c2ccncn2)c1 [Example 50]
2. COc1cc(-c2c(-c3cccc(C#N)c3)nc(N)n3nc(NCc4cccc(C)n4)nc23)cc(C)n1 [Example 70]
3. CCn1cc(-c2c(-c3cccc(C#N)c3)nc(N)n3nc(NCc4ncccc4C)nc23)ccc1=O [Example 16]

Result:
1. ≤ 10 nM
2. 100 to 1000 nM
3. ≤ 10 nM

Consider the following items and state reported EC50 for each.
1. COc1cc(-c2c(-c3cccc(C#N)c3)nc(N)n3nc(OCc4ncccc4F)nc23)cc(C)n1 [Example 33]
2. Cc1cc(-c2c(-c3cccc(C#N)c3)nc(N)n3nc(NCc4cccc(C)n4)nc23)cc(C)n1 [Example 69]
3. Cc1cc(-c2c(-c3cccc(C#N)c3)nc(N)n3nc(OCc4ncccc4F)nc23)cc(C)n1 [Example 32]
4. Cc1cnccc1-c1c(-c2cccc(C#N)c2)nc(N)n2nc(OCc3ncccc3C)nc12 [Example 20]
5. Cn1cc(-c2c(-c3cccc(C#N)c3)nc(N)n3nc(OCc4ncccc4F)nc23)ccc1=O [Example 29]

Result:
1: ≤ 10 nM; 2: > 1000 nM; 3: 10 to 100 nM; 4: ≤ 10 nM; 5: ≤ 10 nM

====

target: human adenosine A2B receptor (Homo sapiens (Human), UniProt P29275); experiment: Adenosine A2B receptor cyclic AMP GS assay (Example B); settings: HEK-293 cells expressing human A2B, agonist NECA 12 nM, cAMP accumulation (FRET); read-out: A2B_cAMP_EC50
Test readout: EC50

Example results:
Cc1cccc(CNc2nc3c(-c4ccc(=O)n(C)n4)c(-c4cccc(C#N)c4)nc(N)n3n2)n1
10 to 100 nM
N#Cc1cccc(-c2nc(N)n3nc(COc4ncccc4C#N)nc3c2-c2ccncn2)c1
≤ 10 nM

Below is a list of molecules. For each, state its recorded EC50.
1. Cc1cccnc1CNc1nc2c(-c3ccc(=O)n(C)n3)c(-c3cccc(C#N)c3F)nc(N)n2n1
2. N#Cc1cccc(-c2nc(N)n3nc(Cn4nnnc4-c4ccccn4)nc3c2-c2ccncc2)c1
3. N#Cc1cccc(-c2nc(N)n3nc(Cc4c(F)cccc4-c4ccnc(N)c4)nc3c2-c2ccnc(N)c2)c1
4. Cc1cccnc1CNc1nc2c(-c3ccc(=O)n(C)c3)c(-c3cccc(C#N)c3)nc(N)n2n1
5. N#Cc1cccc(-c2nc(N)n3nc(Cn4nnnc4-c4ccccn4)nc3c2-c2ccnc(N)c2)c1
6. Cc1cccnc1CNc1nc2c(-c3ccc(=O)n(C)c3)c(-c3cccc(C#N)c3F)nc(N)n2n1

Result:
1: ≤ 10 nM; 2: ≤ 10 nM; 3: ≤ 10 nM; 4: ≤ 10 nM; 5: ≤ 10 nM; 6: 10 to 100 nM

# credit: patent US20250034153A1
